Data provenance: paper PMC9643456

- Tested on: human red blood cells
- PROTOCOL: Hemolytic activity
- Format: cell-based
- PROTOCOL_CONDITIONS: red cells of human, 18 h, 100
Square brackets hold non-standard residues; d marks the D form. Peptide text beside a SMILES is read from it.
ENDPOINT_LABEL: Hemolysis percent, 100 μM (%)

[[record]]
compound = "CC[C@@H](C)[C@@H](NC(=O)[C@@H](Cc1c[nH]c2ccccc12)NC(=O)[C@@H](CC(C)C)NC(=O)[C@@H](CC(C)C)NC(=O)[C@H](N)Cc1c[nH]c2ccccc12)C(=O)NCC(=O)N[C@H](CC(C)C)C(=O)N[C@H](CCCNC(=N)N)C(=O)N[C@H](CCCCN)C(=O)N[C@H](CCCCN)C(=O)N[C@H](CCCNC(=N)N)C(N)=O [WCopW5] (H-[dW][dL][dL][dW][dI]G[dL][dR][dK][dK][dR]-NH2)"
assay_value = 11.60

[[record]]
compound = "CC(C)C[C@H](NC(=O)[C@H](CCCNC(=N)N)NC(=O)CNC(=O)CNC(=O)[C@@H](N)CCCNC(=N)N)C(=O)N[C@H]1CSSC[C@@H](C(=O)N[C@H](C(=O)NCC(=O)N[C@@H](CCCNC(=N)N)C(N)=O)C(C)C)NC(=O)[C@H](C(C)C)NC(=O)[C@@H]2CSSC[C@H](NC(=O)[C@H](Cc3ccc(O)cc3)NC1=O)C(=O)N[C@@H](CCCNC(=N)N)C(=O)N[C@@H](CCCNC(=N)N)C(=O)N[C@@H](CCCNC(=N)N)C(=O)N[C@@H](Cc1ccccc1)C(=O)N2 [Protegrin-1, reference compound]"
assay_value = 71.66

[[record]]
compound = "CC(C)C[C@@H](NC(=O)[C@H](N)Cc1c[nH]c2ccccc12)C(=O)N[C@@H](C(=O)N[C@H](Cc1c[nH]c2ccccc12)C(=O)N[C@H](CCCCN)C(=O)N[C@H](Cc1c[nH]c2ccccc12)C(=O)N[C@H](CCCNC(=N)N)C(=O)N[C@H](CCCNC(=N)N)C(=O)N[C@H](CCCNC(=N)N)C(N)=O)C(C)C [WCopW37] (H-[dW][dL][dV][dW][dK][dW][dR][dR][dR]-NH2)"
assay_value = 0.16

